# assayedSystem: IDH1 (UniProt O75874 1-414)
# Sequence (O75874 whole entry): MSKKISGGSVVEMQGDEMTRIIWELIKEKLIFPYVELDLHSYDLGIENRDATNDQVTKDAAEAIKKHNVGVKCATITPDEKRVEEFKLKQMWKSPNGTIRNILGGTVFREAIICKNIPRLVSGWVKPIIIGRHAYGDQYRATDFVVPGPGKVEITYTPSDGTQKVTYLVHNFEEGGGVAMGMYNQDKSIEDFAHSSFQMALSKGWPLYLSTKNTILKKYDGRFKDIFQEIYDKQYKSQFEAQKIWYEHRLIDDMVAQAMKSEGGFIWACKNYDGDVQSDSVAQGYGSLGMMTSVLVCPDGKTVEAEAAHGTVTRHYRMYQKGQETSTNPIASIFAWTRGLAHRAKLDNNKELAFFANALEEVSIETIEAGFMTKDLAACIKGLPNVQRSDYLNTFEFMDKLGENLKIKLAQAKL
# protocolDetails: EMSA
quantity: Kd (nM)

>>> quantitativeresult("GGAUCCAUUUAUUUAUUUAUUUAAGCUUGG (ssRNA) [AU-rich ssRNA]")
680
